Recorded CC50 values for a group of compounds are listed next.
System: normal human dermal fibroblasts (HDFs)
Measurement Protocol: CellTiter-Glo viability assay, normal human dermal fibroblasts
Type: cell-based
Experimental Conditions: 50% viability after 72-hr incubation, n = 3, read-out: HDF CC50
Positions of bridges follow the written chain, without caps; N, C: chain ends. Non-standard residues stand in square brackets, D forms with d. Residues, ends and D or L forms follow the SMILES beside them. *: point of attachment. NMe2Val = CC(C)[C@@H](C(=O)*)N(C)C; NMeI = CC[C@H](C)[C@H](NC)C(=O)O; NMeT = CN[C@H](C(=O)O)[C@@H](C)O; NMeL = CN[C@@H](CC(C)C)C(=O)O; NMeDap = CN[C@@H](CN)C(=O)O; dHiv = CC(C)[C@@H](O)C(=O)O; NMeA = CN[C@@H](C)C(=O)O; dNMeA = CN[C@H](C)C(=O)O
Write it as a number; the unit nM goes unstated.

See these solved cases before continuing.
Compound	CC50 [nM]
CC[C@H](C)[C@H]1C(=O)N[C@@H](C)C(=O)N(C)[C@@H](CC(C)C)C(=O)N[C@@H](Cc2ccc(OC)cc2)C(=O)N(C)[C@H](C)C(=O)O[C@H](C)[C@H](N(C)C(=O)[C@H](CC(C)C)N(C)C(=O)[C@H](C)N(C)C(=O)[C@H](OC(=O)[C@H](C(C)C)N(C)C)C(C)C)C(=O)N(C)[C@@H](C)C(=O)N1C [Peptide 1b, reference compound] (NMe2Val-[dHiv][NMeA][NMeL][NMeT][NMeA][NMeI]A[NMeL]Y(Me)[dNMeA]; ester 4-C)	4.6
CC[C@H](C)[C@H]1C(=O)N[C@@H](C)C(=O)N(C)[C@@H](CC(C)C)C(=O)N[C@@H](Cc2ccc(OC)cc2)C(=O)N(C)[C@H](C)/C=C/[C@H](C)[C@H](N(C)C(=O)[C@H](CC(C)C)N(C)C(=O)[C@H](C)N(C)C(=O)[C@H](OC(=O)[C@H](C(C)C)N(C)C)C(C)C)C(=O)N(C)[C@@H](C)C(=O)N1C [Peptide 3b]	8.3
CC[C@H](C)[C@H]1C(=O)N[C@@H](C)C(=O)N(C)[C@@H](CC(C)C)C(=O)N[C@@H](Cc2ccc(OC)cc2)C(=O)N(C)[C@H](C)C(=O)NC[C@H](N(C)C(=O)[C@H](CC(C)C)N(C)C(=O)[C@H](C)N(C)C(=O)[C@H](OC(=O)[C@H](C(C)C)N(C)C)C(C)C)C(=O)N(C)[C@@H](C)C(=O)N1C [Peptide 17a] (NMe2Val-[dHiv][NMeA][NMeL][NMeDap][NMeA][NMeI]A[NMeL]Y(Me)[dNMeA]; lactam 4-C)	123

Moving on to the next compound.
Can you look up the measured CC50 of CC[C@H](C)[C@H]1C(=O)N[C@@H](C)C(=O)N(C)[C@@H](CC(C)C)C(=O)N[C@@H](Cc2ccc(OC)cc2)C(=O)N(C)[C@H](C)CC[C@H](C)[C@H](N(C)C(=O)[C@H](CC(C)C)N(C)C(=O)[C@H](C)N(C)C(=O)[C@H](OC(=O)[C@H](C(C)C)N(C)C)C(C)C)C(=O)N(C)[C@@H](C)C(=O)N1C [Peptide 3a] for me?
213
